# assay-target: V600E full-length B-Raf (Homo sapiens, UniProt P15056, V600E)
# Construct: 1 μM FSBA-MEK and 20 nM V600E full-length B-Raf; made in house; host or cells: Sf9 insect cells (baculovirus)
# Sequence (P15056 whole entry V600E): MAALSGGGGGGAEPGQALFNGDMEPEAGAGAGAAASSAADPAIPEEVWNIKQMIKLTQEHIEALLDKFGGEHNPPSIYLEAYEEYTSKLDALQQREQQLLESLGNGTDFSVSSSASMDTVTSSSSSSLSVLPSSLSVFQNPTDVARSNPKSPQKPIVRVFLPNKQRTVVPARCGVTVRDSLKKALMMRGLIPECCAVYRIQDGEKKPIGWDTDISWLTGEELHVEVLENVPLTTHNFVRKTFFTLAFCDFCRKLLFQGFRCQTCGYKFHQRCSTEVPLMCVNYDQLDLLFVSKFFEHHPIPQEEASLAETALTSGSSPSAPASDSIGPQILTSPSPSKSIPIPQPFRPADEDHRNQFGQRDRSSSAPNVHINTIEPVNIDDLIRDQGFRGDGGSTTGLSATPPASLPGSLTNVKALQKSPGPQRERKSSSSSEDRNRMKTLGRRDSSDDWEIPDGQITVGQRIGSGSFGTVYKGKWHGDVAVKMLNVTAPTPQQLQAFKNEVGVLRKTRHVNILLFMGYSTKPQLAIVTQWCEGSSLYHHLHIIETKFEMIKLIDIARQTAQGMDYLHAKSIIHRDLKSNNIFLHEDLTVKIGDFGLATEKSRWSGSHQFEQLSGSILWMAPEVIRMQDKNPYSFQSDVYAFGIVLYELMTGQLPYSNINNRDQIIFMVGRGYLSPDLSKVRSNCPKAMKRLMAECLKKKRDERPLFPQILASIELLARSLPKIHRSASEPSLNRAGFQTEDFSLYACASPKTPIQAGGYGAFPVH
# measurement-protocol: B-Raf IC50 assay (Example A)
# Format: biochemical
# measurement-context: [γ-33P]ATP incorporation into FSBA-MEK, 4 μM ATP; read-out: BRAF V600E IC50
property-label: IC50 (nM)

See these solved cases before continuing.
compound | property-label | endpoint-value
CCCS(=O)(=O)Nc1ccc(Cl)c(NC(=O)c2cccc3c(N)ncnc23)c1C#N [Example 29] | IC50 | 0.08
CCCS(=O)(=O)Nc1cc(F)c(F)c(NC(=O)c2cccc3c(NCCF)ncnc23)c1F [Example 43] | IC50 | 293

P. Nc1ncnc2c(C(=O)Nc3c(F)ccc(NS(=O)(=O)c4ccco4)c3F)cccc12 [Example 33]
Q. O=C(Nc1c(F)ccc(NS(=O)(=O)CCCF)c1F)c1cccc2cncnc12 [Example 55]
Req: Of P and Q , whose reported IC50 is the larger number? Your answer should be the label of the entry you select.
Resp: Q

I. CCN(C)S(=O)(=O)Nc1ccc(F)c(NC(=O)c2cccc3c(N)ncnc23)c1Cl [Example 37]
II. CCCS(=O)(=O)Nc1ccc(Cl)c(NC(=O)c2cccc3c(N)ncnc23)c1 [Example 22]
Req: Of I and II , whose reported IC50 is the larger number? Your answer should be the label of the entry you select.
Resp: II
(II: 64.9 nM, I: 21.5 nM)

1. Cc1ncnc2c(C(=O)Nc3c(F)ccc(NS(=O)(=O)CCCF)c3F)cccc12 [Example 61]
2. CCCS(=O)(=O)Nc1cc(F)c(F)c(NC(=O)c2cccc3c(N)ncnc23)c1F [Example 9]
3. CCCS(=O)(=O)Nc1ccc(F)c(NC(=O)c2cc(C#CCO)cc3c(N)ncnc23)c1F [Example 40]
Req: Order these by IC50, descending, and give the full ranking. Please, when replying, give the labels in the order that was requested.
Resp: 1, 3, 2
(1: 19.3 nM, 3: 2.2 nM, 2: 0.39 nM)

---

# assay-target: V600E full-length B-Raf (Homo sapiens, UniProt P15056, V600E)
# Construct: 1 μM FSBA-MEK and 20 nM V600E full-length B-Raf; made in house; host or cells: Sf9 insect cells (baculovirus)
# measurement-protocol: B-Raf IC50 assay (Example A)
# Type: biochemical
# measurement-context: [γ-33P]ATP incorporation into FSBA-MEK, 4 μM ATP; read-out: BRAF V600E IC50
pIC50: −log10 of the molar value.
property-label: pIC50

compound | assay-target | pIC50
Cc1ncnc2c(C(=O)Nc3c(Cl)ccc(NS(=O)(=O)CCCF)c3F)cccc12 [Example 62] | V600E full-length B-Raf (Homo sapiens, UniProt P15056, V600E) | 8.51

A. CN(C)S(=O)(=O)Nc1ccc(F)c(NC(=O)c2cccc3c(N)ncnc23)c1Cl [Example 39]
B. CCCS(=O)(=O)Nc1ccc(Cl)c(NC(=O)c2cccc3cncnc23)c1F [Example 58]
C. N#Cc1c(NS(=O)(=O)N2CCCC2)ccc(F)c1NC(=O)c1cccc2c(N)ncnc12 [Example 35]
D. Nc1ncnc2c(C(=O)Nc3c(F)ccc(NS(=O)(=O)CC4CC4)c3Cl)cccc12 [Example 16]
E. CCS(=O)(=O)Nc1ccc(Cl)c(NC(=O)c2cccc3c(N)ncnc23)c1F [Example 18]
Req: Order these by pIC50, descending, and give the full ranking. Please, when replying, give the labels in the order that was requested.
Resp: C, E, D, A, B
(C: 9.80, E: 8.82, D: 8.59, A: 8.12, B: 7.77)

---

# assay-target: V600E full-length B-Raf (Homo sapiens, UniProt P15056, V600E)
# Construct: 1 μM FSBA-MEK and 20 nM V600E full-length B-Raf; made in house; host or cells: Sf9 insect cells (baculovirus)
# measurement-protocol: B-Raf IC50 assay (Example A)
# Type: biochemical
# measurement-context: [γ-33P]ATP incorporation into FSBA-MEK, 4 μM ATP; read-out: BRAF V600E IC50
property-label: IC50 (nM)

compound | measure-unit | IC50
CCCS(=O)(=O)Nc1ccc(F)c(NC(=O)c2cc(F)cc3c(N)ncnc23)c1Cl [Example 78] | nM | 0.49
O=C(Nc1c(Cl)ccc(NS(=O)(=O)CCCF)c1Cl)c1cccc2cncnc12 [Example 57] | nM | 0.96
CC(C)CS(=O)(=O)Nc1ccc(F)c(NC(=O)c2cccc3c(N)ncnc23)c1Cl [Example 10] | nM | 0.55

A. CCCS(=O)(=O)Nc1ccc(F)c(NC(=O)c2cc(C)cc3c(NC4CC4)ncnc23)c1F [Example 73]
B. CCCS(=O)(=O)Nc1cccc(NC(=O)c2cccc3c(N)ncnc23)c1F [Example 8]
C. CCCS(=O)(=O)Nc1ccc(F)c(NC(=O)c2ccnc3c(N)ncnc23)c1Cl [Example 63]
Req: Please produce an ascending ranking of these compounds based on IC50. Please, when replying, give the labels in the order that was requested.
Resp: C, B, A
(C: 1.01 nM, B: 10.8 nM, A: 879 nM)

1. Nc1ncnc2c(C(=O)Nc3c(F)ccc(NS(=O)(=O)CCCF)c3Cl)cccc12 [Example 24]
2. CC(C)CS(=O)(=O)Nc1ccc(Cl)c(NC(=O)c2cccc3c(N)ncnc23)c1F [Example 15]
Req: Of 1 and 2 , whose reported IC50 is the larger number? Your answer should be the label of the entry you select.
Resp: 2

---

# assay-target: V600E full-length B-Raf (Homo sapiens, UniProt P15056, V600E)
# Construct: 1 μM FSBA-MEK and 20 nM V600E full-length B-Raf; made in house; host or cells: Sf9 insect cells (baculovirus)
# measurement-protocol: B-Raf IC50 assay (Example A)
# Assay type: biochemical
# measurement-context: [γ-33P]ATP incorporation into FSBA-MEK, 4 μM ATP; read-out: BRAF V600E IC50
property-label: IC50

compound | IC50
CCCS(=O)(=O)Nc1cc(F)c(F)c(NC(=O)c2cccc3c(NC)ncnc23)c1F [Example 50] | > 1000 nM
CCCS(=O)(=O)Nc1cc(F)c(F)c(NC(=O)c2cccc3c(Nc4ccn(C)n4)ncnc23)c1F [Example 48] | > 1000 nM

Req: Please look up its IC50: CCCS(=O)(=O)Nc1ccc(F)c(NC(=O)c2ccnc3c(N)ncnc23)c1F [Example 64]
Resp: 3.11 nM
